# Species: Canis familiaris
# test description: Clearance in dog
# Assay type: ADME, organism-based, Canis lupus familiaris
# test conditions: in vivo
Each record here notes measured clearance.
Field: numeric (mL/min/kg). Do not append units.

Here is how some molecules turned out for clearance.
COc1ccc(OC(F)(F)F)cc1Cn1c(C(=O)NCC(C)(C)CO)cc2cc(C#N)ccc21: 7
O=C(c1ccc(OCCN2CCCCC2)cc1)c1c(-c2ccc(O)cc2)sc2cc(O)ccc12: 40

Next:
Request: Given `Cc1ccc(C(F)(F)F)cc1Cn1c(C(=O)NCCC(C)(C)O)cc2cc(C#N)ccc21` , state its recorded clearance.
Response: 15

---

microsomal CLint overview
# test description: Intrinsic clearance in human liver microsomes in presence of NADPH
# Assay type: ADME, Microsome
# output: bare number, implied unit µL/min/mg

Request: // returns reported microsomal CLint for input CC(O)CCNC(=O)c1cc2cc(C#N)ccc2n1Cc1cccc(OC(F)(F)F)c1 (stereo not given)
Response: 113

Request: Can you look up the measured microsomal CLint of `Cc1ccc(Cl)cc1Cn1c(C(=O)NCC(C)(C)CO)cc2cc(C#N)ccc21` for me?
Response: 119

Request: # microsomal CLint lookup, item `CC(C)(CO)CNC(=O)c1cc2cc(C#N)ccc2n1Cc1cc(Cl)cc(Cl)c1`
Response: 103

Request: Using the record for `N#Cc1ccc2c(c1)cc(C(=O)NCCC(O)(C(F)(F)F)C(F)(F)F)n2Cc1cccc(OC(F)(F)F)c1` , report its microsomal CLint.
Response: 20

Request: May I ask what microsomal CLint has been recorded for `Cc1ccc(C(F)(F)F)cc1Cn1c(C(=O)NCCC(C)(C)O)cc2cc(C#N)ccc21` ?
Response: 12

// provenance: ChEMBL document CHEMBL1759935
